# System: Fer (mouse);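 note: 11-residue human phosphosite peptides and single-mutation variants displayed on the E. coli surface, counted by deep sequencing, each peptide's frequency after selection divided by its frequency in the unselected input library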;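 note: frequency after pTyr selection over input frequency; kinase dosed for 20-30% of maximal phosphorylation in three min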
# measurement protocol: phosphorylation enrichment, bacterial display (enrichment ratio); higher = better substrate or ligand; peptides without Tyr show the background
readout: phosphorylation enrichment

residue_sequence="RVFRDYVLKSA [HTATIP2_Y111_D108Y_YF]" target="Fer (mouse)" experimental_value=0.527
residue_sequence="CEETFYTMKVN [MASP2_Y401]" target="Fer (mouse)" experimental_value=0.738
residue_sequence="RVDRDYVLKST [HTATIP2_Y111_A116T]" target="Fer (mouse)" experimental_value=0.511
residue_sequence="SVMAEYGLFGA [VSX2_Y219_YF]" target="Fer (mouse)" experimental_value=0.424
residue_sequence="ESFCLYPPVPQ [CYP4B1_Y377_R375C]" target="Fer (mouse)" experimental_value=0.582
residue_sequence="ANKNVYEVEPT [MEGF10_Y1075_R1072K]" target="Fer (mouse)" experimental_value=0.36
residue_sequence="FSPGSNERETF [NF1_Y2192_Y2192N]" target="Fer (mouse)" experimental_value=0.538

Every entry's value here was drawn from the supplement of paper PMC10065799.
